target-under-test: human TLR8 (Homo sapiens (Human), UniProt Q9NR97)
Sequence (Q9NR97 27-1041): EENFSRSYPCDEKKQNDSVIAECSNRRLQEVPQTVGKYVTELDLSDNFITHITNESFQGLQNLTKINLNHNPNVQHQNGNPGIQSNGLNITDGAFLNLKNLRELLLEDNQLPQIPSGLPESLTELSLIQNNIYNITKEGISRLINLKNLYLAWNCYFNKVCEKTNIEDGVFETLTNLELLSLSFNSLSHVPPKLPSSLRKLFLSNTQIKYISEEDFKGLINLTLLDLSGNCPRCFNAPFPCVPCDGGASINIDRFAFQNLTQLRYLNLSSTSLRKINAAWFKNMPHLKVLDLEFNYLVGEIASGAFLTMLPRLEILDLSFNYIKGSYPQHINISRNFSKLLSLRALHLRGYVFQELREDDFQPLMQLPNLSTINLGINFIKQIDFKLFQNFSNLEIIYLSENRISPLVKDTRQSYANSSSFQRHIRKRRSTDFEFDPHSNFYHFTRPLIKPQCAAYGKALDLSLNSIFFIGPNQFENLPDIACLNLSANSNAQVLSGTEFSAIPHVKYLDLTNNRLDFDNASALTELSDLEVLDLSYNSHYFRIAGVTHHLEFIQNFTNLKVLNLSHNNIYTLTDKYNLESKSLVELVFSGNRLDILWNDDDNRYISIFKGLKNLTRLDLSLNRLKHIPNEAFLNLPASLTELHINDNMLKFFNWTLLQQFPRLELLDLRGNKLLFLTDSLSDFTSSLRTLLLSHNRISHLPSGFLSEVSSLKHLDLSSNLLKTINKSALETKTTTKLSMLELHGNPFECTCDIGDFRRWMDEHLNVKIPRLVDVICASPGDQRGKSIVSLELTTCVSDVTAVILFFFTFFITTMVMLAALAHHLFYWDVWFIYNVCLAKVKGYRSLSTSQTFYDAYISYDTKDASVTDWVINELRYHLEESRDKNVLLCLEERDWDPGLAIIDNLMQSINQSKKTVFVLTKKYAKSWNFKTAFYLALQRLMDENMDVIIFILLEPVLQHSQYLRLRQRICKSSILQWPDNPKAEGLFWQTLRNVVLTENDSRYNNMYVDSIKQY
experiment-notes: HEK-Blue human TLR8 cells, NF-κB SEAP reporter assay
experimental-conditions: stimulation for 20 hours
observation-type: pEC50
// pEC50 is dimensionless: -log10 of concentration (M)

1. CCCN(CC1CC1)C(=O)C1=Cc2ccc(C(=O)Nc3cccc(C)c3)cc2N=C(N)C1    8.70
2. CCCN(CCC)C(=O)C1=Cc2ccc(C(=O)Nc3cncn3C)cc2N=C(N)C1    8.40
3. CCCN(CCC)C(=O)C1=Cc2ccc(C(=O)Nc3cncc(CCc4cccc(OC)c4)c3)cc2N=C(N)C1    8.00
4. CCCN(CCC)C(=O)C1=Cc2ccc(C(=O)Nc3cncc(F)c3)cc2N=C(N)C1    8.52

For the next question, use this molecule.
Kindly note the recorded pEC50 for CCCN(CCC)C(=O)C1=Cc2ccc(C(=O)Nc3cccc(CCN)c3)cc2N=C(N)C1 [Example 17] , which is 8.22
